In this section we review reported koff values for a set of binders.
- experimentalSystem: T1, human KLRB1 protein extracellular domain (ECD) (human, UniProt Q12918 67-225)
- T1 construct: range 67-225; The ELISA and SPR text says only 'human KLRB1 ECD'; also called human KLRB1 ECD; CD161
- T1 sequence (looked up): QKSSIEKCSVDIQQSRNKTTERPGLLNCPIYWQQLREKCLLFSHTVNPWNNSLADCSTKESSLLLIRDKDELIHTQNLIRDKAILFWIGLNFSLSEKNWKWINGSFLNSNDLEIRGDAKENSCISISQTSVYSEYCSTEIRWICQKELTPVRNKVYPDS
- assayNotes: SPR, human KLRB1 ECD; format not stated
Give the number; s⁻¹ is assumed, so skip it.

Worked examples, 3 binders total:
10A3D6C109Chum4.2 (antibody, V domains shown, Humanized variant of 10A3D6 made by CDR grafting) VH: QVQLVQSGAEVKKPGASVKVSCKASGYSFTGYTMNWVRQAHGQNLEWIGLINPNTGGTYYNQKFKDRATLTVDTSISTAYMELSRLRSDDTAVYYCARLGDNYRGYFDCWGQGTTVTVSS VL: DIQLTQSPSFLSASVGDRVTITCKASQDVGTAVVWYQQKPGKAPKLLIDWASIRHTGVPSRFSGSGSGTEFTLTISSLQPEDFADYFCQQYSTYLYTFGGGTKLEIK ... 0.000107
10A3D6C109Chum2.5 (antibody, V domains shown, Humanized variant of 10A3D6 made by CDR grafting) VH: QVQLVQSGAEVKKPGASVKVSCKASGYSFTGYTMNWVRQAPGQNLEWIGLINPNTGGTYYNQKFKDRVTLTVDTSISTAYMELSRLRSDDTAVYYCARLGDNYRGYFDCWGQGTTVTVSS VL: EIVMTQSPATLSVSPGERATLSCKASQDVGTAVVWYQQKPGQAPRLLIDWASIRHTGIPARFSGSGSGTEFTLTISSLQSEDFAVYYCQQYSTYLYTFGGGTKVEIK ... 9.49e-05
10A3D6C109S-chimeric (antibody, human IgG1, V domains shown, Chimeric mutated variant; the name hIgG1k indicates human IgG1 kappa constant regions; also called 10A3D6C109ShIgG1k) VH: EVQLQQSGPELVKPGASMKISCKASGYSFTGYTMNWVKQSHGKNLEWIGLINPNTGGTYYNQKFKDKATLTVDKSSSTAYMELLSLTSEDSAVYYCARLGDNYRGYFDSWGQGTTLTVSS VL: DIVMTQSHKFMSTSVGDRVNITCKASQDVGTAVVWYQQTPGQSPKVLIDWASIRHTGVPDRFTGSGSGTDFTLTISSVQSEDLADYFCQQYSTYLYTFGGGTKLEIK ... 0.000303

# binder 10A3D6C109Chum5.4 (antibody, V domains shown, Humanized variant of 10A3D6 made by CDR grafting) VH: QVQLVQSGAEVKKPGASVKVSCKASGYSFTGYTMNWVRQAPGQNLEWMGLINPNTGGTYYNQKFKDRVTLTVDTSISTAYMELSRLRSDDTVVYYCARLGDNYRGYFDCWGQGTLVTVSS VL: DIQLTQSPSFLSASVGDRVTITCKASQDVGTAVVWYQQTPGKAPKLLIDWASIRHTGVPDRFSGSGSGTEFTLTISSLQPEDFADYFCQQYSTYLYTFGGGTKLEIK ; its koff = 0.000133

Recorded koff (binder 10A3D6C109Chum5.2 (antibody, V domains shown, Humanized variant of 10A3D6 made by CDR grafting) VH: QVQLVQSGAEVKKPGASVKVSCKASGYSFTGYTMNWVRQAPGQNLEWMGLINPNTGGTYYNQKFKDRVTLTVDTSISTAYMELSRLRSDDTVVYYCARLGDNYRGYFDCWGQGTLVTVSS VL: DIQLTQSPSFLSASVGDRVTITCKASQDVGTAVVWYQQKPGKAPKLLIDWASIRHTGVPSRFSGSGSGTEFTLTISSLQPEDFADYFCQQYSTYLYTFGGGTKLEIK ): 0.000138
